- Assay remarks: Free plasma concentrations in the rat CCI studies
- Test parameters: Sprague Dawley, plasma, oral, 1 mg/kg
Property measured: concentration at 1.3 h

- Compound smiles: "CCOCCn1nc(C(=O)NS(C)(=O)=O)c2nc(N(C)CC)nc(Nc3cc(C)ccn3)c21"
  Result: "≤ 10.2 nM"

====

- Assay remarks: Free plasma concentrations in the rat CCI studies
- Test parameters: Sprague Dawley, in vivo, 3 mg/kg
Property measured: concentration at 2.5 h (µM)

- Molecule: "CC(C)C[C@H](CN)CC(=O)O [pregabalin]"
  Units text: "µM"
  Numeric readout: 17.8

====

- Assay remarks: Free plasma concentrations in the rat CCI studies
- Test parameters: Sprague Dawley, plasma, oral, 1 mg/kg
Property measured: concentration at 4.3 h

- Compound smiles: "CCOCCn1nc(C(=O)NS(C)(=O)=O)c2nc(N(C)CC)nc(Nc3cc(C)ccn3)c21"
  Property measured: "concentration at 4.3 h"
  Result: "≤ 16.1 nM"

====

- Assay remarks: Free plasma concentrations in the rat CCI studies
- Test parameters: Sprague Dawley, in vivo, 20 mg/kg
- Source text: It is important to ascertain whether any concluded synergy observed in animals or man is due solely to pharmacokinetic interactions.

- Compound smiles: "CC(C)C[C@H](CN)CC(=O)O"
  concentration at 2.5 h (µM): 89.8

====

- Assay remarks: clinical
- Test parameters: human, in vivo, po

- Compound smiles: "CCCc1nn(C)c2c(=O)[nH]c(-c3cc(S(=O)(=O)N4CCN(C)CC4)ccc3OCC)nc12"
  Units text: "h"
  half-life: 4

Values from patent US20080293746A1
